Data credit: PubChem BioAssay AID1645865

- Experimental system: Ubiquitin carboxyl-terminal hydrolase 30 (Homo sapiens) (UniProt Q70CQ3)
- Sequence (Q70CQ3 whole entry, looked up): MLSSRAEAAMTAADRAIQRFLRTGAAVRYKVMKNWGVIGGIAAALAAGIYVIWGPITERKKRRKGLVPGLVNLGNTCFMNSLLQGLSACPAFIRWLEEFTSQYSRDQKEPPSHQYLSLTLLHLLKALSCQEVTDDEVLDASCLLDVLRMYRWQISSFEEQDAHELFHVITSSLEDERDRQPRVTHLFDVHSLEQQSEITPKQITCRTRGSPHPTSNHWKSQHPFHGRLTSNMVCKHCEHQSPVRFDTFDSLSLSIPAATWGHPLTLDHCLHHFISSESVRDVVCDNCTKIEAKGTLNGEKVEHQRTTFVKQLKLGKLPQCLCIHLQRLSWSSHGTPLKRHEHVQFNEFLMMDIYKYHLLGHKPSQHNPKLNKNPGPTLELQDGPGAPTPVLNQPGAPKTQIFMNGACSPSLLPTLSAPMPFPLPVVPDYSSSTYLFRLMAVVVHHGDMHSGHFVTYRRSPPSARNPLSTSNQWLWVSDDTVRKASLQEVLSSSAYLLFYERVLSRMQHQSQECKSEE
- Assay protocol: inhibitors of ubiquitin-specific protease 30 deubiquitylating enzyme, concentration dependence, in vitro biochemical, validation of primary hits (AID 1645865)
- Assay context: purified USP30, Ub-rhodamine cleavage, fluorescence, 2 h
The source made the active and inactive calls.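 How the source made its calls: active means maximal inhibition of the USP30 enzyme reaching 30% or more across the dose series; inactive means the rest.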
Give your call using only these classes: y for active, n for inactive

Sample answers from the record:
Cc1ccc(Cl)cc1NC(=O)c1cc(-c2ccccn2)n[nH]1 y
Cc1cc(NC(=O)c2[nH]nc3c2CCc2ccccc2-3)no1 y
COc1ccc2cc3c(nc2c1)OC(=O)N(CCc1cccc(F)c1)C3 y
CO[C@H]1CC[C@H](O)c2c1oc1c3c4c(c(O)c1c2=O)-c1c(cc2c(Cl)c(C)n(N)c(=O)c2c1O)C[C@@H]4OCO3 y
Cc1ccc2nc(CCc3ccc(NS(=O)(=O)c4cccc(Cl)c4C)cc3)[nH]c2c1 y

Short answer needed: outcome of this test for Cc1nc(NCc2ccccn2)c2cc(-c3ccccc3)sc2n1 ?
y

Short answer needed: outcome of this test for O=C(CCc1nnc2n(Cc3ccc(F)cc3)c(=O)c3ccccc3n12)N1CCN(c2ccccn2)CC1 ?
n

Short answer needed: outcome of this test for O=C(/C=C/c1c(F)cccc1Cl)N1CCc2ccccc2C1 ?
n

Short answer needed: outcome of this test for Cc1ccc(-c2nnc(-n3ncc(C#N)c3N)c3ccccc23)cc1C ?
n

Short answer needed: outcome of this test for COc1ccc(NC(=O)CN2CCN(c3ccc(C(C)=O)cc3)CC2)cc1S(=O)(=O)N1CCCCC1 ?
y

###

- Experimental system: Ubiquitin carboxyl-terminal hydrolase 30 (Homo sapiens)
- Assay protocol: inhibitors of ubiquitin-specific protease 30 deubiquitylating enzyme, concentration dependence, in vitro biochemical, validation of primary hits (AID 1645865)
- Assay context: purified USP30, Ub-rhodamine cleavage, fluorescence, 2 h
Activity calls are given as the source filed them.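 The calls were made as follows: active = maximal inhibition of the USP30 enzyme reaching 30% or more across the dose series; inactive = the rest.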
Give your call using only these classes: active, inactive

Sample answers from the record:
Compound	Group
Cc1cccc(NC(=O)Nc2ccc(C)n(CC(=O)Nc3ccccc3)c2=O)c1	active
Cc1ccc(NC(=O)C2CCN(c3cncnc3N3CCCC3)CC2)cc1	inactive

Short answer needed: outcome of this test for O=C(NCc1cccnc1)c1cnn2c(C(F)(F)F)cc(-c3ccccc3)nc12 ?
inactive

Short answer needed: outcome of this test for Cc1sc2nc(CN3CCCC3)nc(NCCc3ccc(Cl)cc3)c2c1C ?
inactive

###

- Experimental system: UniProtKB Q70CQ3
- Assay protocol: inhibitors of ubiquitin-specific protease 30 deubiquitylating enzyme, concentration dependence, in vitro biochemical, validation of primary hits (AID 1645865)
- Assay context: purified USP30, Ub-rhodamine cleavage, fluorescence, 2 h
Active and inactive are the calls of the source.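 Rule for the calls: active = maximal inhibition of the USP30 enzyme reaching 30% or more across the dose series; inactive = the rest.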
Give your call using only these classes: active, inactive

Sample answers from the record:
Molecule	Group
COc1ccc(CNC(=O)CN2C(=O)C(C)=C(c3ccc(C)cc3)S2(=O)=O)cc1	inactive
CC(C)(C)c1cc(C[C@@H]2C[C@H](NC(=O)N3CCOCC3)C2(C)C)no1	active
Cc1cccc(C(=O)NCc2nc3ccccc3n2Cc2ccccc2C)c1	active

Short answer needed: outcome of this test for CCOc1ccc(NC(=O)Cn2c(=O)n(CCCCCC(=O)NCc3ccc(F)cc3)c(=O)c3sccc32)cc1 ?
active

Short answer needed: outcome of this test for Cc1cccc(NC(=O)CSc2nnc(-c3n[nH]c4c3CCC4)n2N)c1C ?
active

Short answer needed: outcome of this test for Fc1ccc(-c2noc(-c3nnc(NCc4cccnc4)c4ccccc34)n2)cc1 ?
active

Short answer needed: outcome of this test for CCc1ccc(NC(=O)Cc2nnc3cc(-c4nc(C)no4)ccn23)cc1 ?
active

###

- Experimental system: Ubiquitin carboxyl-terminal hydrolase 30 (Homo sapiens)
- Assay protocol: inhibitors of ubiquitin-specific protease 30 deubiquitylating enzyme, concentration dependence, in vitro biochemical, validation of primary hits (AID 1645865)
- Assay context: purified USP30, Ub-rhodamine cleavage, fluorescence, 2 h
Calls of active or inactive are those of the source.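 How the source made its calls: active means maximal inhibition of the USP30 enzyme reaching 30% or more across the dose series; inactive means the rest.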
Give your call using only these classes: 1.0 (active), 0.0 (inactive)

Compound	Group
O=C(Nc1cccc(Cl)c1)N1CCC(c2cc(-c3ccco3)n[nH]2)CC1	0.0
COc1ccc(C)cc1NC(=O)C(NS(=O)(=O)c1ccc2c(c1)CCN2C(C)=O)C(C)C (stereo unspecified)	0.0
O=C(COc1nc2ccccc2nc1N1CCOCC1)NC(c1ccccc1)c1ccccc1	0.0

Short answer needed: outcome of this test for N#Cc1ccc(NC(=O)c2ccc(S(=O)(=O)N3CCCCC3)cc2)cc1 ?
1.0

Short answer needed: outcome of this test for Cc1nnc(C(=O)Nc2ccc(C(=O)NCc3ccccc3C)cc2)s1 ?
1.0

###

- Experimental system: UniProtKB Q70CQ3
- Assay protocol: inhibitors of ubiquitin-specific protease 30 deubiquitylating enzyme, concentration dependence, in vitro biochemical, validation of primary hits (AID 1645865)
- Assay context: purified USP30, Ub-rhodamine cleavage, fluorescence, 2 h
Active and inactive are the calls of the source.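 Rule for the calls: active = maximal inhibition of the USP30 enzyme reaching 30% or more across the dose series; inactive = the rest.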
Endpoint label: IC50

Input O=C(CCCn1c(=O)[nH]c2cc(Cl)ccc2c1=O)N1CCc2ccccc2C1 , output reported IC50.
35.4 µM

Input O=C(Nc1ccc2sccc2c1)c1ccc(F)cc1 , output reported IC50.
35.4 µM

Input Cc1cc(-c2cnc(N(C)C)nc2-c2ccc(CNC(=O)Cc3ccc(F)cc3)cc2)on1 , output reported IC50.
> 50 µM (inactive)

Input O=C(NCc1ccc2c(c1)OCO2)c1cc(-c2cc(Cl)ccc2O)n[nH]1 , output reported IC50.
2.82 µM

Input COc1ccc(-c2cc(-c3ccc(F)cc3)[nH]c(=O)c2C#N)cc1 , output reported IC50.
22.1 µM

Input O=c1ccc(-c2noc(-c3ccc4cc[nH]c4c3)n2)c[nH]1 , output reported IC50.
> 50 µM (inactive)

Input COc1ccc(-c2nc(Cn3nnc(C(=O)Nc4ccc(C)c(C)c4)c3N)c(C)o2)cc1 , output reported IC50.
2.53 µM

Input O=S1(=O)CCN(Cc2c(F)cccc2F)c2c(F)nc(N3CCOCC3)c(F)c21 , output reported IC50.
> 50 µM (inactive)

Input N#Cc1ccc(Cc2ncc(C(F)(F)F)cc2Cl)s1 , output reported IC50.
> 50 µM (inactive)

Input Cc1ccc(NC(=O)c2sc(=S)n(CCc3ccccc3)c2N)cc1 , output reported IC50.
1.74 µM

Input FC(F)(F)c1cccc(CSc2ccc3nnc(-c4ccccn4)n3n2)c1 , output reported IC50.
14.9 µM

###

- Experimental system: Ubiquitin carboxyl-terminal hydrolase 30 (Homo sapiens) (UniProt Q70CQ3)
- Assay protocol: inhibitors of ubiquitin-specific protease 30 deubiquitylating enzyme, concentration dependence, in vitro biochemical, validation of primary hits (AID 1645865)
- Assay context: purified USP30, Ub-rhodamine cleavage, fluorescence, 2 h
Calls of active or inactive are those of the source.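 The calls were made as follows: active = maximal inhibition of the USP30 enzyme reaching 30% or more across the dose series; inactive = the rest.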
Give your call using only these classes: active, inactive

Sample answers from the record:
Molecule	Experimental system	Group
Cn1nccc1C(=O)N1CCCCC1c1ncc(Cc2ccc(Cl)cc2)o1 (stereo not given)	Ubiquitin carboxyl-terminal hydrolase 30 (Homo sapiens) (UniProt Q70CQ3)	inactive
O=C(c1ccc2occc2c1)N1CCC(S(=O)(=O)c2ccc(-c3ccco3)cc2)CC1	Ubiquitin carboxyl-terminal hydrolase 30 (Homo sapiens) (UniProt Q70CQ3)	inactive
Cc1c(CC(=O)Nc2nn[nH]n2)c(=O)oc2cc3c(cc12)CCC1(CCCCC1)O3	Ubiquitin carboxyl-terminal hydrolase 30 (Homo sapiens) (UniProt Q70CQ3)	inactive

Short answer needed: outcome of this test for Cc1ccccc1C(=O)OCCN1C(=O)c2cccc3c(N4CCCCC4)ccc(c23)C1=O ?
inactive

Short answer needed: outcome of this test for O=C1COc2ccc(NC(=O)c3cnn(Cc4ccccc4)c3)cc2N1 ?
active

###

- Experimental system: Ubiquitin carboxyl-terminal hydrolase 30 (Homo sapiens) (UniProt Q70CQ3)
- Assay protocol: inhibitors of ubiquitin-specific protease 30 deubiquitylating enzyme, concentration dependence, in vitro biochemical, validation of primary hits (AID 1645865)
- Assay context: purified USP30, Ub-rhodamine cleavage, fluorescence, 2 h
Calls of active or inactive are those of the source.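 How the source made its calls: active means maximal inhibition of the USP30 enzyme reaching 30% or more across the dose series; inactive means the rest.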
Give your call using only these classes: active, inactive

COc1ccc(N2CCN(Cc3nnnn3Cc3ccc4c(c3)OCO4)CC2)cc1 inactive
O=c1c2cnc3nc(-c4cccnc4)nn3c2ccn1CCc1ccccc1 inactive

Short answer needed: outcome of this test for CN(Cc1ccccc1)S(=O)(=O)c1ccc(S(=O)(=O)N2CCN(C(=O)c3cccnc3)CC2)cc1 ?
active

Short answer needed: outcome of this test for Cc1cccc(C(=O)N2CCc3cc(-c4nc(NC(=O)CNc5ccccc5)sc4C)ccc32)c1 ?
inactive

Short answer needed: outcome of this test for Cc1ccc(C(=O)c2cn(CC(=O)Nc3ccccc3)c3ccc(C)cc3c2=O)cc1 ?
active

###

- Experimental system: Ubiquitin carboxyl-terminal hydrolase 30 (Homo sapiens) (UniProt Q70CQ3)
- Assay protocol: inhibitors of ubiquitin-specific protease 30 deubiquitylating enzyme, concentration dependence, in vitro biochemical, validation of primary hits (AID 1645865)
- Assay context: purified USP30, Ub-rhodamine cleavage, fluorescence, 2 h
Calls of active or inactive are those of the source.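 Rule for the calls: active = maximal inhibition of the USP30 enzyme reaching 30% or more across the dose series; inactive = the rest.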
Give your call using only these classes: active, inactive

Sample answers from the record:
Molecule	Group
O=C(NCc1ccccc1Cl)C1CCCN(c2nc3ccsc3c(=O)s2)C1 (stereo unspecified)	active
COc1ccc(CNC(=O)CN2C(=O)CC(c3ccccc3)=Nc3ccccc32)cc1	active
CCCN1C=NS(=O)(=O)c2cc(C(=O)Nc3ccc(OC)c(Cl)c3)ccc21	active
CCn1cnc2c1c(=O)n(CC(=O)NCc1ccccc1Cl)c(=O)n2Cc1ccccc1	inactive

Short answer needed: outcome of this test for COc1ccc(CCNC(=O)c2cc(C3CC3)nc3c2cnn3C(C)C)cc1 ?
inactive

Short answer needed: outcome of this test for CC(C)c1nc2sc3c(NCc4ccco4)ncnc3c2c2c1CCC2 ?
inactive

Short answer needed: outcome of this test for NS(=O)(=O)c1cc(C(=O)OCC(=O)NC2CCCc3ccccc32)ccc1Cl (stereo unspecified) ?
inactive

Short answer needed: outcome of this test for O=C(Cn1cccc1-c1nc(-c2ccccc2)cs1)N1CCOCC1 ?
active

Short answer needed: outcome of this test for O=C(Nc1cccc(C(F)(F)F)c1)N1CCCn2c(nc3ccccc32)C1 ?
active

Short answer needed: outcome of this test for CC(C)c1ccc(NC(=O)COC(=O)c2ccc3[nH]c4c(c3c2)CCCC4)cc1 ?
active

Short answer needed: outcome of this test for Nc1ccccc1SCc1noc(-c2cccs2)n1 ?
inactive

Short answer needed: outcome of this test for Cc1nc(C(=O)Nc2cccc(Cl)c2Cl)nn1-c1cc(Cl)cc(Cl)c1 ?
active

Short answer needed: outcome of this test for COc1ccc(C2SCC(=O)Nc3c2c(=O)[nH]n3C2CCCCC2)cc1 (stereo unspecified) ?
active

Short answer needed: outcome of this test for Cc1ccc(CNC(=O)c2cccc(N3C(=O)N4CCc5c([nH]c6ccccc56)[C@@]4(C)C3=O)c2)cc1 ?
active

Short answer needed: outcome of this test for CCOC(=O)c1cc2c(ccn2C)n1CC(=O)N1CCC(C)CC1 ?
inactive

Short answer needed: outcome of this test for CCc1cc2cc3c(cc2nc1SCC(=O)Nc1cccc(C(C)=O)c1)OCO3 ?
active

Short answer needed: outcome of this test for COc1ccccc1OCCNC(=O)c1cc(C2CC2)nc2c1cnn2C(C)C ?
inactive

Short answer needed: outcome of this test for Cc1ccc(OCC(=O)Nc2cccc(-c3nc4ncccc4o3)c2)c(C)c1 ?
active

Short answer needed: outcome of this test for Cc1cnnn1-c1ccc(C(=O)Nc2cc(Cl)ccc2Cl)cc1 ?
active

Short answer needed: outcome of this test for CC(C)c1ccc(NC(=O)c2cc3ncc(Br)cn3n2)cc1 ?
inactive

Short answer needed: outcome of this test for FC(F)(F)c1cccc(Nc2nnc(-c3cccnc3)s2)c1 ?
active
